Measurement Notes: Inhibition of mouse recombinant alpha-glucosidase using 4-methylumbelliferyl-[…]-D-glucopyranoside as substrate preincubated for 60 mins followed by substrate addition and measured after 30 mins by fluorescence based analysis
Assay Endpoint: pIC50
Numbers only, as −log10 of the molar value.

Study these solved cases before continuing.
1. [N-]=[N+]=Nc1ccc(NCCc2cncc(CCN3C[C@H](O)[C@@H](O)[C@H](O)[C@H]3CO)n2)c([N+](=O)[O-])c1 ... 8.52
2. O=[N+]([O-])c1cc(N2CCOCC2)ccc1NCc1cccc(CN2C[C@H](O)[C@@H](O)[C@H](O)[C@H]2CO)c1 ... 4.89
3. Cc1cc(NCc2cccc(CN3C[C@H](O)[C@@H](O)[C@H](O)[C@H]3CO)c2)cc(-c2ncccn2)c1 ... 4.18
4. CS(=O)(=O)c1cc(NCc2cccc(CN3C[C@H](O)[C@@H](O)[C@H](O)[C@H]3CO)c2)cc(-c2ccccc2)c1 ... 5.34
5. COCCc1ccc(CCCCCN2C[C@H](O)[C@@H](O)[C@H](O)[C@H]2CO)cc1 ... 7.12
6. OC[C@@H]1[C@@H](O)[C@H](O)[C@@H](O)CN1Cc1ccc(CNc2ccc(N3CCOCC3)cc2)cc1 ... 5.80

In the following, a different molecule is considered.
For record Cc1nc(-c2ccc(NCCCCCCN3C[C@H](O)[C@@H](O)[C@H](O)[C@H]3CO)c([N+](=O)[O-])c2)no1 the listed pIC50 is 8.52

###

Measurement Notes: Inhibition of mouse recombinant alpha-glucosidase using 4-methylumbelliferyl-[…]-D-glucopyranoside as substrate preincubated for 60 mins followed by substrate addition and measured after 30 mins by fluorescence based analysis
For each record, write down the corresponding log10 of IC50.
Form field - Quantity: IC50; Unit: nM; Scale: log10

Study these solved cases before continuing.
1) COCCCCCCCCCN1C[C@H](O)[C@@H](O)[C@H](O)[C@H]1CO ... 1.83
2) O=[N+]([O-])c1cc(N2C3CCC2COC3)ccc1NCCCCCCN1C[C@H](O)[C@@H](O)[C@H](O)[C@H]1CO ... 1.48
3) CS(=O)(=O)c1cc(Br)cc(NCc2cccc(CN3C[C@H](O)[C@@H](O)[C@H](O)[C@H]3CO)c2)c1 ... 3.90
4) N#Cc1cc(NCc2cccc(CN3C[C@H](O)[C@@H](O)[C@H](O)[C@H]3CO)c2)cc(C2=COCCO2)c1 ... 3.43
5) OC[C@@H]1[C@@H](O)[C@H](O)[C@@H](O)CN1CCCCCCNc1cc(-c2cccnn2)cc(C2CC2)c1 ... 1.08

In the following, a different compound is considered.
For record OC[C@@H]1[C@@H](O)[C@H](O)[C@@H](O)CN1CCCCCCCCc1ccco1 the listed log10 of IC50 is 1.54

###

For each record, write down the corresponding CC50.
Measurement Notes: Cytotoxicity against human A549-ACE2 cells infected with SARS-CoV-2 USA-WA1/2020 assessed as reduction in cell viability measured for 3 days by WST-1 assay
Type: toxicity, cell-based
Assay Context: a549-ace2, 72 h, time 3 day

Study these solved cases before continuing.
1. O=[N+]([O-])c1cc(-n2cccn2)ccc1NCCCCCCN[C@H]1C[C@](O)(CO)[C@@H](O)[C@H](O)[C@H]1O ... > 100 µM
2. OC[C@@H]1[C@@H](O)[C@H](O)[C@@H](O)CN1CCCCCCNc1cc(-c2cccnn2)cc(C2CC2)c1 ... > 100 µM

In the following, a different molecule is considered.
For record Cc1nc(-c2ccc(NCCCCCCN3C[C@H](O)[C@@H](O)[C@H](O)[C@H]3CO)c([N+](=O)[O-])c2)no1 the listed CC50 is > 100 µM

###

Test system: SARS-CoV-2
Measurement Notes: Antiviral activity against SARS-CoV-2 USA-WA1/2020 infected in human A549-ACE2 cells assessed as maximum reduction in viral burden up to 100 uM measured upto 4 days by viral plaque assay
Type: functional
Assay Context: Severe acute respiratory syndrome coronavirus 2, time <= 4.0 day
Calls of active or inactive are those of the source. No cut-off for these calls is given here.
Assay Endpoint: Activity

Study these solved cases before continuing.
1) C[C@@H]1CN(c2ccc(NCc3ccc(CN4C[C@H](O)[C@@H](O)[C@H](O)[C@H]4CO)cc3)c([N+](=O)[O-])c2)C[C@H](C)O1 ... inactive
2) Cc1cc(NCc2cccc(CN3C[C@H](O)[C@@H](O)[C@H](O)[C@H]3CO)c2)cc(-c2ncccn2)c1 ... inactive
3) O=[N+]([O-])c1cc(N2CCOCC2)ccc1NCc1cccc(CN2C[C@H](O)[C@@H](O)[C@H](O)[C@H]2CO)c1 ... inactive
4) Cc1cc(NCc2cccc(CN3C[C@H](O)[C@@H](O)[C@H](O)[C@H]3CO)n2)cc(-c2ccc[nH]2)c1 ... inactive
5) CS(=O)(=O)c1cc(NCc2cccc(CN3C[C@H](O)[C@@H](O)[C@H](O)[C@H]3CO)c2)cc(-c2ccccc2)c1 ... inactive

Value sought for every listed compound: Activity.
1. O=[N+]([O-])c1cc(-c2ccnc(N3CCOCC3)n2)ccc1NCCCCCCN1C[C@H](O)[C@@H](O)[C@H](O)[C@H]1CO
2. Cc1cc(NCc2ccc(CN3C[C@H](O)[C@@H](O)[C@H](O)[C@H]3CO)cc2)cc(-c2cccnn2)c1
3. [N-]=[N+]=Nc1ccc(NCCc2cncc(CCN3C[C@H](O)[C@@H](O)[C@H](O)[C@H]3CO)n2)c([N+](=O)[O-])c1

[A]
1. inactive
2. inactive
3. inactive

###

For each record, write down the corresponding CC50.
Measurement Notes: Cytotoxicity against human A549-ACE2 cells infected with SARS-CoV-2 USA-WA1/2020 assessed as reduction in cell viability measured for 3 days by WST-1 assay
Format: toxicity, cell-based
Assay Context: a549-ace2, 72 h, time 3 day

Study these solved cases before continuing.
1. N#Cc1cc(NCc2cccc(CN3C[C@H](O)[C@@H](O)[C@H](O)[C@H]3CO)c2)cc(C2=COCCO2)c1 ... > 100 µM
2. OC[C@@H]1[C@@H](O)[C@H](O)[C@@H](O)CN1CCCCCCCCc1ccco1 ... 35 µM
3. Cc1nc2cc(-c3ncccn3)ccc2n1CCCCCCN1C[C@H](O)[C@@H](O)[C@H](O)[C@H]1CO ... > 100 µM
4. [N-]=[N+]=Nc1ccc(NCCCCCCN2C[C@H](O)[C@@H](O)[C@H](O)[C@H]2CO)c([N+](=O)[O-])c1 ... > 100 µM
5. O=[N+]([O-])c1cc(N2C3CCC2COC3)ccc1NCCCCCCN1C[C@H](O)[C@@H](O)[C@H](O)[C@H]1CO ... > 100 µM
6. CS(=O)(=O)c1cc(Br)cc(NCc2cccc(CN3C[C@H](O)[C@@H](O)[C@H](O)[C@H]3CO)c2)c1 ... > 100 µM
7. COCCCCCCCCCN1C[C@H](O)[C@@H](O)[C@H](O)[C@H]1CO.Cl ... > 100 µM
8. O=[N+]([O-])c1cc(N2[C@@H]3CC[C@H]2COC3)ccc1NCc1ccc(CN2C[C@H](O)[C@@H](O)[C@H](O)[C@H]2CO)cc1 ... 39.8 µM
9. OC[C@@H]1[C@@H](O)[C@H](O)[C@@H](O)CN1Cc1ccc(CNc2ccc(N3CCOCC3)cc2)cc1 ... > 100 µM
10. OC[C@@H]1[C@@H](O)[C@H](O)[C@@H](O)CN1CCc1ccc(CCNc2cc(O)cc(-c3cccnn3)c2)cc1 ... > 100 µM

Value sought for every listed molecule: CC50.
1. Cc1cc(-c2ccco2)ccc1NCc1ccc(CN2C[C@H](O)[C@@H](O)[C@H](O)[C@H]2CO)cc1
2. O=[N+]([O-])c1cc(-c2ccccc2)ccc1NCCCCCCN1C[C@H](O)[C@@H](O)[C@H](O)[C@H]1CO
3. CS(=O)(=O)c1cc(NCc2ccc(CN3C[C@H](O)[C@@H](O)[C@H](O)[C@H]3CO)cc2)cc(-c2cccnn2)c1
4. O=[N+]([O-])c1cc(NCCCCCCN2C[C@H](O)[C@@H](O)[C@H](O)[C@H]2CO)cc(-c2ccncc2)c1
5. O=[N+]([O-])c1cc(-c2noc(C3CCC3)n2)ccc1NCCCCCCN1C[C@H](O)[C@@H](O)[C@H](O)[C@H]1CO
6. OC[C@@H]1[C@@H](O)[C@H](O)[C@@H](O)CN1CCc1ccc(CCNc2cc(O)cc(-c3ncon3)c2)cc1

[A]
1. 29.5 µM
2. > 100 µM
3. > 100 µM
4. 54.2 µM
5. 40.7 µM
6. > 100 µM

###

Measurement Notes: Cytotoxicity against human A549-ACE2 cells infected with SARS-CoV-2 USA-WA1/2020 assessed as reduction in cell viability at 25 uM measured for 3 days by WST-1 assay relative to control
Type: toxicity, cell-based
Assay Context: a549-ace2, 72 h, time 3 day
Assay Endpoint: Activity (%)
One number for each entry, in %.

Value sought for every listed compound: Activity.
1. Cc1cc(NCc2ccc(CN3C[C@H](O)[C@@H](O)[C@H](O)[C@H]3CO)cc2)cc(-c2cccnn2)c1
2. Cc1cc(-c2ccco2)ccc1NCc1ccc(CN2C[C@H](O)[C@@H](O)[C@H](O)[C@H]2CO)cc1
3. CS(=O)(=O)c1cc(Br)cc(NCc2cccc(CN3C[C@H](O)[C@@H](O)[C@H](O)[C@H]3CO)c2)c1
4. O=[N+]([O-])c1cc(N2[C@@H]3CC[C@H]2COC3)ccc1NCc1ccc(CN2C[C@H](O)[C@@H](O)[C@H](O)[C@H]2CO)cc1
5. Cc1nc2cc(-c3ncccn3)ccc2n1CCCCCCN1C[C@H](O)[C@@H](O)[C@H](O)[C@H]1CO
6. OC[C@@H]1[C@@H](O)[C@H](O)[C@@H](O)CN1Cc1ccc(CNc2ccc(N3CCOCC3)cc2)cc1
7. O=[N+]([O-])c1cc(-c2ccccc2)ccc1NCCCCCCN1C[C@H](O)[C@@H](O)[C@H](O)[C@H]1CO

[A]
1. 73.7
2. 82.6
3. 100
4. 75
5. 80.8
6. 97.6
7. 100

For record COCCCCCCCCCN1C[C@H](O)[C@@H](O)[C@H](O)[C@H]1CO.Cl the listed Activity is 100
